Target: Torsin-1A-interacting protein 2 (Homo sapiens)
Assay: LULL1 binders on small-molecule microarray, primary screen, cell lysate, human LULL1 lysate, 635/667 nm fluorescence (AID 1092);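 also: probe is lysate of COS7 cells overexpressing human LULL1; score merges per-feature 667 nm fluorescence with signal-to-noise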
Settings: hLULL1 lysate binding, 635 nm fluorescence, higher = more signal
measured attribute: composite z-score

> print(dat)
                                   compound                               system.name  result
1  CC(C)=CCCC(C)=CC(O)C1C=CC2C(=O)N(C)C(=O)C2N1Nc1ccccc1 (centres undefined)  Torsin-1A-interacting protein 2 (Homo sapiens)    3.29
2  O=C1C2C=CC(C(O)c3cccc4ccccc34)N(Nc3ccccc3F)C2C(=O)N1c1ccccc1 (centres undefined)  Torsin-1A-interacting protein 2 (Homo sapiens)    3.69
3  O=C1C[C@@](C(=O)NC2CC2)(c2ccc([N+](=O)[O-])cc2)[C@@H](c2ccc(CO)cc2I)N1C1CCCCC1  Torsin-1A-interacting protein 2 (Homo sapiens)    2.82
4  C=C(COC)/C(=C/C[C@@H](OC(=O)c1ccncc1)c1ccc(CO)o1)c1cc(C(=O)OC)ccc1OC  Torsin-1A-interacting protein 2 (Homo sapiens)       2

---

Test: small-molecule microarray binders of probe aEGFR, primary screen, biochemical, biotinylated probe, 635/667 nm fluorescence (AID 1097);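 also: probe is a biotinylated anti-EGFR antibody binding compounds printed on slides; score combines fluorescence near 667 nm and signal to noise of each spot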
Conditions: higher = more signal
measured attribute: composite z-score

smiles str	result
COC(=O)[C@@]1(Cc2ccc(F)cc2)[C@H]2c3cc(C(=O)N4CCCC4)n(CCCNc4ncc(C(F)(F)F)cc4Cl)c3C[C@H]2CN1C(=O)c1ccccc1	0.476
COC(=O)[C@@]1(Cc2ccc(OC)cc2)[C@H]2c3cc(C(=O)N(C)C)n(C)c3C[C@H]2CN1C(=O)c1ccccc1	0.382
O=C1O[C@H](c2ccccc2)[C@H](c2ccccc2)N2[C@H]1[C@@H](C(=O)N1CCCCCCC1)[C@]1(C(=O)Nc3ccc(C#CC4=CCCCC4)cc31)[C@H]2c1ccc(OCCO)cc1	1.07
C=C(COC)/C(=C/C[C@@H](OC(=O)c1ccncc1)c1ccc(CO)o1)c1cc(C(=O)OC)ccc1OC	0.0878

---

Listing of recorded composite z-score by entry.
Biological target: Torsin-1A (Homo sapiens) (UniProt O14656)
Sequence (O14656 whole entry, looked up): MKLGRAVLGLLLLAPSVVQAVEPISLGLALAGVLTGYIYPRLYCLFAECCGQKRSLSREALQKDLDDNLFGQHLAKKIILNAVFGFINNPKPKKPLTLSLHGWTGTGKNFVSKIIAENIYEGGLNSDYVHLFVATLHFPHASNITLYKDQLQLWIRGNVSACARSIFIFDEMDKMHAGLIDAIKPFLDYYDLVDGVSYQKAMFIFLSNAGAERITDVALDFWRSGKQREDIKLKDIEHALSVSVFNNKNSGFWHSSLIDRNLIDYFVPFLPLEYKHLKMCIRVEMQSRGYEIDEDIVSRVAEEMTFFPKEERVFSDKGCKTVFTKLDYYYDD
Assay: torsin A binders from cell lysate, primary screen, small-molecule microarray, wild-type, 635/667 nm (AID 1149)
Settings: COS7 hTOR1A-WT lysate, 635 nm fluorescence, higher = more signal
measured attribute: composite z-score

compound	system name	measured attribute	result
COc1ccc(CCNC(=O)[C@@]2(Sc3ccc(C)cc3)CC(=O)N(C(C)C)[C@@H]2c2ccc(CO)cc2I)cc1	Torsin-1A (Homo sapiens) (UniProt O14656)	composite z-score	0.0086
COC(=O)[C@@]1(Cc2ccccc2)[C@H]2c3cc(C(=O)N4CCCC4)n(Cc4ccc(S(C)(=O)=O)cc4)c3C[C@H]2CN1C(=O)c1ccccc1	Torsin-1A (Homo sapiens) (UniProt O14656)	composite z-score	0.758
CCCC=C(CCC)[C@@H](NC(=O)c1cccs1)c1ccc(C(F)(F)F)cc1	Torsin-1A (Homo sapiens) (UniProt O14656)	composite z-score	0.598
CC(C)NC(=O)[C@@]1(c2ccc([N+](=O)[O-])cc2)CC(=O)N(C2CCCCC2)[C@@H]1c1ccc(CO)cc1I	Torsin-1A (Homo sapiens) (UniProt O14656)	composite z-score	0.0498
CC(C)=CCN[C@H](CO)c1ccccc1	Torsin-1A (Homo sapiens) (UniProt O14656)	composite z-score	-0.801
COCCCNC(=O)[C@@]1(C)c2ccccc2C(=O)N(C(C)C)[C@H]1c1ccc(CO)cc1	Torsin-1A (Homo sapiens) (UniProt O14656)	composite z-score	-0.277
C[C@@]1([C@@H](NC(=O)c2ccc(-c3ccccc3)cc2)c2ccc(Cl)cc2)C[C@H]1C1CCCCC1	Torsin-1A (Homo sapiens) (UniProt O14656)	composite z-score	0.564
COC(=O)C(CC#Cc1ccc2c(c1)[C@]1(C(=O)N2)[C@H](C(=O)Nc2nc3ccccc3s2)[C@H]2C(=O)O[C@H](c3ccccc3)[C@H](c3ccccc3)N2[C@@H]1c1ccc(O)cc1)C(=O)OC	Torsin-1A (Homo sapiens) (UniProt O14656)	composite z-score	0.71
COCCOC(=O)N1C(=O)[C@@]2(c3ccccc31)[C@H](c1ccc(O)cc1)N1[C@H](c3ccccc3)[C@H](c3ccccc3)OC(=O)[C@H]1[C@@H]2C(=O)Nc1nc2ccccc2s1	Torsin-1A (Homo sapiens) (UniProt O14656)	composite z-score	0.514
NC(=O)[C@@H]1[C@H]2C(=O)O[C@H](c3ccccc3)[C@H](c3ccccc3)N2[C@H](c2ccc(O)cc2)[C@@]12C(=O)Nc1ccccc12	Torsin-1A (Homo sapiens) (UniProt O14656)	composite z-score	-2.99
CC(C)N1C(=O)C[C@@](C(=O)NCC(F)(F)F)(c2ccc([N+](=O)[O-])cc2)[C@H]1c1ccc(CO)cc1	Torsin-1A (Homo sapiens) (UniProt O14656)	composite z-score	0.894
CC(C)C[C@@H]1NC(=O)[C@H](C(C)C)NC(=O)[C@@]23C(=O)N[C@@H](Cc4ccccc4)C2[C@H](C)[C@@]2(C)O[C@H]2C3/C=C/CC/C=C/CNC1=O (stereo partly drawn)	Torsin-1A (Homo sapiens) (UniProt O14656)	composite z-score	0.356
CCCC[C@@H]1C[C@H]1[C@@H](NC(=O)C(C)(C)C)c1ccc(C(F)(F)F)cc1	Torsin-1A (Homo sapiens) (UniProt O14656)	composite z-score	-0.49

---

Documented z-score across a set of compounds
Test: PSAC antagonists in infected red cells, primary screen, cell-based, P. falciparum Indochina, OD700, 2 h (AID 1155);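 also: lysis reports solute entry through the parasite surface anion channel PSAC; channel blockers reduce lysis of infected cells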
Details: P. falciparum Indochina infected erythrocytes, osmotic lysis OD700; higher = more signal, called active from +8 up or from −8 down
measured attribute: z-score

> print(dat)
                                   compound  measured.attribute  recorded.number
1  O=C1O[C@@H](c2ccccc2)[C@@H](c2ccccc2)N2[C@@H](c3ccccc3OCCO)[C@]3(C(=O)Nc4ccccc43)[C@@H](C(=O)Nc3nc4ccccc4s3)[C@H]12             z-score             1.59
2  CCC(CC)C(O)C1C=CC2C(=O)NC(=O)C2N1Nc1ccc(Cl)cc1Cl (centres undefined)             z-score             0.65
3  [N-]=[N+]=NCc1ccccc1C[C@]1(C(=O)N2CCCCC2)N=C(c2ccc(OCCCO)cc2)O[C@H]1c1ccccc1N=[N+]=[N-]             z-score             26.5
4  O=C(c1ccccc1)N1Cc2ccccc2C[C@@]2(COC(c3ccc(OCCCO)cc3)=N2)C1=O             z-score             1.26

---

Assay: small-molecule microarray binders of probe aCHRDL2, primary screen, biochemical, biotinylated probe, 635/667 nm fluorescence (AID 1100)
Settings: higher = more signal
measured attribute: composite z-score

> print(dat)
                                   compound  recorded.number
1  [N-]=[N+]=NCc1ccccc1[C@@H]1OC(c2ccc(OCCCO)cc2)=N[C@]1(Cc1ccccc1)C(=O)NCC(O)CO (some centres undefined)            0.956
2  [N-]=[N+]=Nc1ccccc1[C@H]1OC(c2ccc(OCCCO)cc2)=N[C@@]1(CCS(=O)(=O)c1ccccc1)C(=O)NCC(O)CO (some centres undefined)             0.95
3  C=C(COC)/C(=C/C[C@@H](OC(=O)c1ccncc1)c1ccc(CO)o1)c1cc(C(=O)OC)ccc1OC           -0.623
4  COCCCNC(=O)[C@]1(CCC(=O)OC(C)(C)C)N=C(c2ccc(OCCCO)cc2)O[C@@H]1c1ccccc1CN=[N+]=[N-]            0.608

---

Experiment: inhibitors of hydroxyurea-induced Chk1 phosphorylation, primary screen, imaging, HeLa, phospho-Chk1 antibody, percent positive cells (AID 1186)
Settings: hydroxyurea-induced phospho-Chk1 immunofluorescence imaging, higher = more signal
measured attribute: z-score

> print(dat)
                                   compound  recorded.number
1  CN1C(=O)C2C=CC(C(O)c3ccccc3)N(N(c3ccccc3)c3ccccc3)C2C1=O (configuration not stated)            0.812
2  C=CCNC(=O)[C@@H]1[C@H]2C(=O)O[C@H](c3ccccc3)[C@H](c3ccccc3)N2[C@H](c2ccccc2OCCO)[C@@]12C(=O)N(C(=O)OCCOC)c1ccccc12            0.115
3  C=CCN1C(=O)[C@]2(O[C@H](CCn3cc([C@H](O)c4ccccc4)nn3)[C@@H]([Si](C)(C)c3ccc(OC)cc3)[C@@H]2C)c2ccccc21           -0.831
4  C=CC(=C)[C@H]1Oc2ccccc2S(=O)(=O)N2CCC[C@@H]12            0.142
5  COc1ccc([Si](C)(C)[C@H]2[C@H](CC(=O)N3Cc4ccccc4C[C@H]3CO)O[C@@]3(C(=O)N(Cc4cccc(N5CCC5=O)c4)c4ccccc43)[C@@H]2C)cc1           -0.227
6  COc1cc(Br)cc(C(O)C2C=CC3C(=O)N(C)C(=O)C3N2N2CCCCC2)c1OC (configuration not stated)            0.293
7  O=C1O[C@@H](c2ccccc2)[C@@H](c2ccccc2)N2[C@@H](c3ccccc3OCCO)[C@]3(C(=O)Nc4ccccc43)[C@@H](C(=O)Nc3nc4ccccc4s3)[C@H]12            0.489
